tested.system: calpain-1 from human erythrocytes (Homo sapiens, UniProt P07384)
Sequence (P07384 1-714): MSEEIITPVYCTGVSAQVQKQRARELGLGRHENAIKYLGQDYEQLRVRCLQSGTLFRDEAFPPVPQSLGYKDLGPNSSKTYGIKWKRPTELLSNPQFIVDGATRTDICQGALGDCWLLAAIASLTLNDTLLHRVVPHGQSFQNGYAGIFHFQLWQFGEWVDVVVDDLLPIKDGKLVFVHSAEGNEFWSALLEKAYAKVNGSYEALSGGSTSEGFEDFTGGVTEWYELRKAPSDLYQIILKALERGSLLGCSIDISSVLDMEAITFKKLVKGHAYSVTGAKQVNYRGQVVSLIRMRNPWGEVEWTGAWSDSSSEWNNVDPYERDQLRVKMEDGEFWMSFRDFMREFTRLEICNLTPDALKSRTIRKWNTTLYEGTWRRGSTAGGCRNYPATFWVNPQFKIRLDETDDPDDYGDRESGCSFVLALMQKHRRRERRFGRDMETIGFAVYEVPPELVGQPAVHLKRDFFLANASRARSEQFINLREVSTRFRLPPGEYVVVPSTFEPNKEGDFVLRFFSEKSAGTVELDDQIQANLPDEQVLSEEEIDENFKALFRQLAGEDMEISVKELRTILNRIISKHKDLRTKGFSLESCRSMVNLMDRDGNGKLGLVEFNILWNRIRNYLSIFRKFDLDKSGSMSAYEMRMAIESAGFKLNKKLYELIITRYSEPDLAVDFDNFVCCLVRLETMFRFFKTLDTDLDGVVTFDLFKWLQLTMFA
Sequence (P04632 1-268 partner): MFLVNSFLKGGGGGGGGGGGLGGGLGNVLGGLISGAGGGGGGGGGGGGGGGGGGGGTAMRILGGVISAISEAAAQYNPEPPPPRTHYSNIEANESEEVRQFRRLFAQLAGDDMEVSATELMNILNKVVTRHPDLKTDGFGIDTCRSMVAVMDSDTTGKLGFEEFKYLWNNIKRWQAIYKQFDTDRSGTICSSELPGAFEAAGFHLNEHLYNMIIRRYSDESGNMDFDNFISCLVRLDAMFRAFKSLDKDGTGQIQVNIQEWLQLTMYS
quantity: pIC50
Value format note: pIC50 is -log10 of concentration (mol/L); just state the number.

Fill in the blank: the reported pIC50 of COCCOCCOC(=O)N[C@@H](CC(C)C)C(=O)N[C@@H](Cc1ccccc1)C(=O)C(=O)NC1CC1 [SNJ-1945, reference compound] is ____.
7.40
